B1: glmS ribozyme (parent)
chain: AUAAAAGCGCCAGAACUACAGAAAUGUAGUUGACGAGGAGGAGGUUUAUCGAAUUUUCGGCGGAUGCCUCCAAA

variants of: B1; assay: self-cleavage kobs at 640 uM GlcN6P; higher = faster cleavage; RNA array; conditions: with glucosamine-6-phosphate
This sample holds only a part of the variants without activity.
Tag: Yes if measured self-cleavage kobs at 640 uM GlcN6P is not below 0.0002 s⁻¹, No if it is.

INSERT INTO assay_data (ordered_residues, label_value) VALUES
  ('AUAAAAGCGCCAGAACUACAGAAAUGUAGUUGACGAGGAGGAGGUUUAUCGAUUUCUCGGCGGAUGCCUCCAAA [A53U U56C]', 'Yes'),
  ('AUAAAAGCGCCAGAACUACAGAAAUGUAGUUGACUAGGAGGAGGUUUAUCGAAUUUUCUCCUGAUGCCUCCAAA [G35U G59U G60C G62U]', 'No'),
  ('AUAAAAGCGCGAGAACUACAGAAAUGUAGUUGACGAGGAGGAGGUUUAUCGAAUUUUCGGCGGAUGCCUGCAAA [C11G C70G]', 'No'),
  ('AUAAAAGCGCCAGAACUACAGAAAUGUAGUUGACCAGGAUGAGGUUUAUCGUAUUUUCGGCGUAUGCCUCCAAA [G35C G40U A52U G63U]', 'No'),
  ('AUAAAAGCGCCAGAACUACAGAAAUGUAGUUGACGAGGAGGAGGUUUAUCGAAUUUUAGGCGGAUGCCUUCAAA [C58A C70U]', 'No'),
  ('AUAAAAGCGCCAGAGCUACAGAAAUGUAGUAGACGAGGAGGAGGUUGAUCGAAUUUUCGGCGGAUGCCUCCAAA [A15G U31A U47G]', 'Yes'),
  ('AUAAAAGCGCCAGAACUACAGAAAUGUAGUUGACGAGGAGGAGGUUUAUCGAAUUUUCGGCGUAUUCCUCCAAA [G63U G66U]', 'No'),
  ('AUAAAAGCGCCAGAACUACAGAAAUGUAGUUAACGAGGAGGAGGUUUAUCGAAUUUUGGGCGGAUGCUUCCAAA [G32A C58G C68U]', 'No'),
  ('AUAAAAGCGCCACGACUACAGAAAUGUAGUUGACGAGGAGGAGGUUUAUCGAAUUCUCGGCGGAUGCCUCCAAA [G13C A14G U56C]', 'No'),
  ('AUAAAAGCGCCAGAACUACAGAAAUGUAGUUGACGAAGAGGAGGUUUAACGAAUUUUCGGCGGAUACCUCCAAA [G37A U49A G66A]', 'No'),
  ('AUAAAAAGGCCAGAACUACAGAAAUGUAGUUGACGAGGAGGAGGUUUAUCGAAUUUUCGGCGGAUGCCUCCAAA [G7A C8G]', 'No'),
  ('AUAAAAGCGCCAGAAGUACAGAAAUGUAUUUGACGAGGAGGAGGUUUAUCGAAAUUUCGGCGGAUGCCUCCAAA [C16G G29U U54A]', 'Yes'),
  ('AUAAAAGCGCCAGAACUACAGAAAUGUAGUUGCCGAGGAGGAGGUUUAUCGAAUUUUCGGCGGCUGCUUCCAAA [A33C A64C C68U]', 'No'),
  ('AUAAAAGCGCCAGAGCUACAGAAAUGUAGUUGACGAGGAGGAGGUUUUUCGAAUUUUCGGCGGAUGCCUGCAAA [A15G A48U C70G]', 'No'),
  ('AUAAAAGCGCCAGAACUACAGAAAUGUAGUUGACGAGGAGGAGGUUUAUCGAAUUCUCGGCGGAUACCUCCAAA [U56C G66A]', 'Yes'),
  ('AUAAAAGCGCCCGAACUACAGAAAUGUAGUUGACGAGGAGAAGGUUUCUCGAAUUUUCGGCGGAUGCCUCCAAA [A12C G41A A48C]', 'No'),
  ('AUAAAAGCGCCAGAACUACAGAAAUGUAGUUGACGAGGAGGAGGUUUAUCGAAUGUUCGGCGGAGGCCUCCAAA [U55G U65G]', 'Yes'),
  ('AUAAAAGCGCCAGAACUACAGAAAUGUAGUUAACGAGGAGGAGGGUUAUCGAAUUUUCGGCGGAUGCCUCCAAA [G32A U45G]', 'Yes'),
  ('AUAAAAGCGCCAGAACUACAGAAAUGUAAUUGACGAGGAGGAGGUUUAUCGAAUGUUCGGCGGAUGCCUCCAAA [G29A U55G]', 'Yes'),
  ('AUAAAAGGGCCAGAACUACAGAAAUGUAGUUGACUAGGAGGAGGUUUAUCGAAUUUUCGGCGGAUACCUCCAAA [C8G G35U G66A]', 'No'),
  ('AUAAAAGCGCCAGAACUACAGAAAUGUAGUUGACGAGGAGGAGGUUAAUCGAAUUUUCGGCGGAUGCUUCCAAA [U47A C68U]', 'Yes'),
  ('AUAAAAGCGCCAGCACUACAGAAAUGUAGUUGACGGGGAGGAGGUGUAUCGAAUUUUCGGCGGAAGCCUCCAAA [A14C A36G U46G U65A]', 'No'),
  ('AUAAAAGCGCCAGAACUACAGAAAUGUAGUUGACGAGGAGCAGGUUUAUCGCAUUUUCGACGAAUACUUCCAAA [G41C A52C G60A G63A G66A C68U]', 'No'),
  ('AUAAAAGCGCCAGAAUUACAGAAAUGUAGUUCACAAGGAGGAGGUUUAUCGAAUUUUCGGCGGAUGCAUCCAAA [C16U G32C G35A C68A]', 'No'),
  ('AUAAAAGCGCCAGAACUACAGAAAUGUAGUUGACGAGGAAGAGGUUUAUCGAAUUUUCGGCGGAUGACUCCAAA [G40A C67A]', 'No'),
  ('AUAAAAGCGCCGGAACUACAGAAAUGUAGUUGAGGAGGAGCAGGUUUAUUGAAUAUUCGGCGGAUGCCUCCAAA [A12G C34G G41C C50U U55A]', 'No'),
  ('AUAAAAGCGCCAGAACUACAGAAAUGUAGUUUACGAGGAGGACGUUUAUCGAAUUUUCGGCGGAUGCCUCCAAA [G32U G43C]', 'No'),
  ('AUAAAAGCGCCAGAACUACAGAAAUGUAGUUGACGAGGAGGAGGUUUAUCGUACUUUCGGCGGAUGCCUCCAAA [A52U U54C]', 'No'),
  ('AUAAAAGCGCCAGAACUACAGAAAUGUAGUUGACGAGGAGGAUGUAUAUCGAAUUUCCGGCGGAUGCCUACAAA [G43U U46A U57C C70A]', 'No'),
  ('AUAAAAGCGCCGGAACUACAGAAAUGUAGAUGACGAGGAGGAGAUUUAUCGAAUUUUCGGCGGAUGCCUCCAAA [A12G U30A G44A]', 'No'),
  ('AUAAAAGCGCCAGAAUUACAGAAAUGUAGUUGACGAGGUGGAGGUUUAUCGAAUUUUCGGCGGAUGCCUCCAAA [C16U A39U]', 'Yes'),
  ('AUAAAAGCGCCAGAACUACAGAAAUGUAGUUGACGAGGAGGAGGUUGAUCGAAUCUUCGGCGGAUGCCUCCAAA [U47G U55C]', 'Yes'),
  ('AUAAAAGCGCCAGAACUACAGAAAUGUAGUUUACGAGGAAGAGGUUUAUCGAAUUUUCGGCGGAUGCCUCCAAA [G32U G40A]', 'No'),
  ('AUAAAAGCGCCAGAACUACAGAAAUGUAGUUGACGAGGAGGAGGUGUAGCGAAUUUUCGGCGACUGCCUCCAAA [U46G U49G G63A A64C]', 'No'),
  ('AUAAAAGCGCCAGAACUACAGAAAUGUAGUUGACGAGGAGGAGGUUUAUCGACUUUUCGGCGGAUACCUCCAAA [A53C G66A]', 'Yes'),
  ('AUAAAAGCGCCCGAACUACAGAAAUGUAGUUGACGAGGAGGACGUUUAUCGAAUUUUCGGCGGAUGCCUCCAAA [A12C G43C]', 'No'),
  ('AUAAAAGCGCCAGAACUACAGAAAUGUAGUUGACGAGGAGUAGGUUUAUCGGAUUUUCGGCGGAUGCCUCCAAA [G41U A52G]', 'No'),
  ('AUAAAAGCGCCAGAACUACAGAAAUGUAGAUGACGAGGAGGAGGUUUAUCGAUUUUUCGGCGGAUGCCUCCAAA [U30A A53U]', 'Yes'),
  ('AUAAAAGCGCCAGAACUACAGAAAUGUAGUUGACGAGGAGGAGGUGUCUCGAAUUUUCGGCGGAUGCCUCCAAA [U46G A48C]', 'No'),
  ('AUAAAAGCGCCAGGACUACAGAAAUGUAGUUGACGAGGAGGAGGUUGAUCGAAUUUUCGGCGGAUGCCUCCAAA [A14G U47G]', 'Yes');

Source of measurements: the supplement of paper PMC7125110
